- experimental details: Mouse PK study (iv 3 mpk, po 30 mpk)
- Assay type: in vivo, male CD1 mice
- condition details: male, CD1, whole blood, 30 mg/kg, PO 30 mpk, read-out: Mouse PO 30 mpk T½ (converted)
Give measured half-life for each item. Keep answers brief.
Expressed in h, but write only the number.

In: Looking for the measured half-life of CC/C(=C(/c1ccc(/C=C/C(=O)O)cc1)c1ccc2[nH]ncc2c1)c1ccc(F)cc1Cl [GDC-0810, reference compound] , can you help?
Out: 2.9

In: What half-life value was documented for this molecule, C[C@@H]1Cc2c([nH]c3ccccc23)[C@@H](c2c(Cl)cc(/C=C/C(=O)O)cc2Cl)N1CC(C)(F)F [Compound 25] ?
Out: 62

In: Fill in: half-life of C[C@@H]1Cc2c([nH]c3ccccc23)[C@@H](c2c(F)cc(/C=C/C(=O)O)cc2F)N1CC(C)(C)F [AZD9496, reference compound] is ___
Out: 3.5

* * *

- Tested on: pooled human hepatocytes
- experimental details: Human hepatocyte clearance study
- Type: in vitro ADME
- condition details: human hepatocytes 0.5x10^6 viable cells/mL, 120 min
- Protocol: The in vitro hepatocyte clearance of compound described here was studied using pooled human hepatocytes purchased from BioreclamationlVT (Westbury, NY, Cat #X008001, Lot #TQJ). Assay was conducted according to manufacture's instruction. […] Hepatocyte viability and density were counted using a Trypan Blue exclusion, and then cells were diluted with serum-free incubation medium to a working cell density of 0.5×10^6 viable cells/mL. […] Peak areas were determined from extracted ion chromatograms. […]
recorded metric: Human Hepatocyte Remaining Percentage @ 120 min (%)
Note: unit % is implicit; provide only the numeric part.

In: Bench note: what Human Hepatocyte Remaining Percentage @ 120 min (%) did C[C@]12CC[C@@H]3c4ccc(O)cc4C[C@@H](CCCCCCCCC[S+]([O-])CCCC(F)(F)C(F)(F)F)[C@H]3[C@@H]1CC[C@@H]2O (stereo partly shown) [Fulvestrant, reference compound] show?
Out: 12

In: Which Human Hepatocyte Remaining Percentage @ 120 min (%) is listed for C[C@@H]1Cc2c([nH]c3ccccc23)[C@@H](c2c(F)cc(OCCN3CC(CF)C3)cc2Cl)N1CC(C)(C)F [Compound 11] ?
Out: 83

In: Param item = CC/C(=C(/c1ccc(/C=C/C(=O)O)cc1)c1ccc2[nH]ncc2c1)c1ccc(F)cc1Cl [GDC-0810, reference compound] ; retrieve measured Human Hepatocyte Remaining Percentage @ 120 min (%).
Out: 24

In: What value of measured Human Hepatocyte Remaining Percentage @ 120 min (%) is listed for C[C@@H]1Cc2c([nH]c3ccccc23)[C@@H](c2c(F)cc(/C=C/C(=O)O)cc2Cl)N1CC(C)(C)F [Compound 20] ?
Out: 70

* * *

- Test system: breast cancer cell line MCF-7
- experimental details: MCF-7 cell growth study (celltiter-glo luminescent viability assay);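 also: viability read by luminescence after compound exposure, relative to DMSO vehicle-treated wells on the same plate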
- Type: cell-based, human
- condition details: Homo sapiens, MCF7, 144 h, MCF-7 cells, 6 days incubation; read-out: IC50 (nM), cell growth inhibition
recorded metric: IC50 (nM)
Report only the number, with the unit nM understood.

In: # query: IC50 of entry C[C@@H]1Cc2c([nH]c3ccccc23)[C@@H](c2c(F)cc(/C=C/C(=O)O)cc2F)N1CC1(C)CC1
Out: 1

In: Data request, read-out IC50, for C[C@@H]1Cc2c([nH]c3ccccc23)[C@@H](c2c(F)cc(OCCN3CCCCC3)cc2F)N1CC(C)(F)F
Out: 0.6

In: Given COc1ccc2c3c([nH]c2c1)C(c1c(F)cc(OCCN2CC(CF)C2)cc1F)N(CC(C)(C)F)C(C)C3 (centres unmarked) [Compound 15A] , state its recorded IC50.
Out: 1.8

In: Name the recorded IC50 for CC(C)CN1C(C)Cc2c([nH]c3ccc(F)cc23)C1c1c(F)cc(/C=C/C(=O)O)cc1F (centres unmarked) [Compound 39A] .
Out: 2.6

In: Reported IC50 for C[C@@H]1Cc2c([nH]c3ccccc23)[C@@H](c2c(F)cc(OCCN3CCCCCC3)cc2F)N1CC(C)(C)F : what is it?
Out: 1

In: Given the molecule CC(C)(F)CN1C(c2c(F)cc(/C=C/C(=O)O)cc2F)c2[nH]c3ccccc3c2CC1C(F)(F)F (centres unmarked) [Compound 31A] , what is its reported IC50?
Out: 0.4

In: // lookup IC50 for CC1Cc2c([nH]c3ncccc23)C(c2c(F)cc(/C=C/C(=O)O)cc2F)N1CC(C)(C)F (centres unmarked) [Compound 32A]
Out: 1.9

In: For the molecule CC1Cc2c([nH]c3ccc(F)cc23)C(c2c(Cl)cc(/C=C/C(=O)O)cc2Cl)N1CC(C)(C)F (centres unmarked) [Compound 27B] , what IC50 is on record?
Out: 0.7
